Values compiled from patent US12344610B2.

Tested on: HEK293 cells overexpressing APOL1 G2
Assay: APOL1 G2 HEK293 cell rescue assay (reversal of cell death caused by overexpression of APOL1)
Assay type: cell-based
Details: Homo sapiens, HEK293, HEK293 overexpressing APOL1 G2; geometric mean of at least 2 assay runs; † = single assay run
pEC50: −log10 of the molar value.
Class Fulfilled: pEC50 at least 7. Class Not fulfilled: pEC50 below 7.

Incoming: Would you say C[C@]1(O)C[C@@H](n2c(=O)ccc3cc(OCCN4CCC5(CC4)C(=O)Nc4ccc(C#N)cc45)cnc32)C1 [Compound 406] shows pEC50 at minimum 7?
Outgoing: Fulfilled

Incoming: Answer whether pEC50 of CN1C(=O)C2(CCN(CCOc3ccc4nccnc4c3)CC2)c2ccccc21 [Compound 34] is greater than or equal to 7.
Outgoing: Not fulfilled

Incoming: Does C[C@@H](CN1CCC2(CC1)C(=O)Nc1ccccc12)Oc1ccc(S(C)(=O)=O)cc1 (single isomer, unassigned) [Compound 13] have a reported pEC50 of at least 7?
Outgoing: Not fulfilled

Incoming: Answer whether pEC50 of C[C@]1(O)C[C@@H](n2ncc3cc(OCCN4CCC5(CC4)C(=O)Nc4ccc(Cl)cc45)cnc32)C1 (single isomer, unassigned) [Compound 357] is greater than or equal to 7.
Outgoing: Fulfilled

Incoming: Item CC(=O)N1CCCc2cc(OCCN3CCC4(CC3)C(=O)Nc3ccc(C#N)cc34)cnc21 [Compound 81] with pEC50 of 7 or above?
Outgoing: Not fulfilled
